A collection of compounds and their measured TGI
# Test system: HOP-92 NSCLC
# test details: NCI tumour cell line growth inhibition, 48 h

[
  {
    "compound": "O=C(c1ccccc1)C1S(=O)(=O)OCCOS1(=O)=O",
    "sign": ">",
    "TGI, µM": 100
  },
  {
    "compound": "COC(=O)N/N=C(\\C)c1c(O)cc(C)oc1=O",
    "sign": ">",
    "TGI, µM": 100
  },
  {
    "compound": "COc1cc2c3c(n(C)c(=O)c2cc1OC)-c1cc2c(cc1/C3=C\\CCCI)OCO2",
    "sign": ">",
    "TGI, µM": 100
  },
  {
    "compound": "O=C(/C=C/c1ccccc1F)c1ccc(Cl)c(Cl)c1",
    "sign": ">",
    "TGI, µM": 100
  },
  {
    "compound": "Nc1ccc(C2=CC(c3ccc(Cl)cc3)N3C=CSC3=N2)cc1 (stereo not given)",
    "sign": "=",
    "TGI, µM": 72.4
  },
  {
    "compound": "CC(=O)Oc1ccc2c(c1)CC[C@@H]1C2[C@@H](O[N+](=O)[O-])C[C@@]2(C)C1CC[C@@H]2O[N+](=O)[O-] (stereo not given in full)",
    "sign": "=",
    "TGI, µM": 23.5
  },
  {
    "compound": "NC1=Nc2cc(Cl)ccc2Sc2nc3ccccc3n21",
    "sign": "=",
    "TGI, µM": 71
  },
  {
    "compound": "CCc1cccc(C)c1NC(=O)C(=O)CC(=O)c1ccc(Cl)s1",
    "sign": ">",
    "TGI, µM": 100
  },
  {
    "compound": "Cc1ccc(/C=N/Nc2nc(Nc3ccccc3)nc(-n3nc(C)cc3C)n2)cc1",
    "sign": "=",
    "TGI, µM": 10.9
  },
  {
    "compound": "COc1ccc2c(c1)c(-c1nc(-c3c[nH]c4ccncc34)cs1)cn2C",
    "sign": "=",
    "TGI, µM": 3.33
  }
]
